Reference source for all entries: the supplement of paper PMC10307832

Tested on: NCI-H1623
Procedure Summary: relative viability (nuclei count vs DMSO), 5 days (fraction); higher = more cells survive
Condition Set: first compound 158.11 µM
Assay Metric: relative viability
Give only the figure.

[[record]]
compound = "O=C(O)CCCCC(CCSCc1ccccc1)SCc1ccccc1 (centres undefined) [CPI-613] + CCNC(=O)c1noc(-c2cc(C(C)C)c(O)cc2O)c1-c1ccc(CN2CCOCC2)cc1 [Luminespib] (partner 0.01 µM)"
reading = 0.389

[[record]]
compound = "O=C(O)CCCCC(CCSCc1ccccc1)SCc1ccccc1 (centres undefined) [CPI-613] + Cc1cc(Nc2cc(N3CCN(C)CC3)nc(Sc3ccc(NC(=O)C4CC4)cc3)n2)n[nH]1 [Tozasertib] (partner 0.1 µM)"
reading = 0.417

[[record]]
compound = "O=C(O)CCCCC(CCSCc1ccccc1)SCc1ccccc1 (centres undefined) [CPI-613] + Cc1nc(Nc2ncc(C(=O)Nc3c(C)cccc3Cl)s2)cc(N2CCN(CCO)CC2)n1 [Dasatinib] (partner 0.075 µM)"
reading = 0.39


Attention now turns to another entry.
For reference, reported relative viability for O=C(O)CCCCC(CCSCc1ccccc1)SCc1ccccc1 (centres undefined) [CPI-613] + COc1cc2c(Oc3ccc(NC(=O)C4(C(=O)Nc5ccc(F)cc5)CC4)cc3F)ccnc2cc1OCCCN1CCOCC1 [Foretinib] (partner 0.25 µM) stands at 0.59
